# tested_on: purified HLA-DR DRB1*0101 (human)
# assay_notes: competition with 125I-labelled reference peptide, purified HLA
experimental_readout: pIC50
Numbers only, as −log10 of the molar value.

Examples with their reported pIC50 follow.
RVVVSIDRFLRVRDQ (modifications not checked) [Flu.PB2.496] | 5.73
ESAVLRGFLILGKED (modifications not checked) [Flu.PB2.690] | 8.08

I have 3 binders here; please give me pIC50 for each one.
1. LIQLIVSGRDEQSIA (modifications not checked) [Flu.PB2.384]
2. FLILGKEDRRYGPAL (modifications not checked) [Flu.PB2.697]
3. AMVFSQEDCMIKAVR (modifications not checked) [Flu.PB2.404]

Response:
[5.49, 5.08, 4.96]
